Test system: human apolipoprotein B mRNA
Experiment: Inhibition of human apolipoprotein B mRNA levels in HepG2 cells, quantitative real-time PCR
Type: cell-based
Conditions: Table 2; HepG2 cells, 150 nM
In the oligonucleotide strings, read from the 5' end, every base follows the letter of its sugar. An asterisk marks phosphorothioate; unmarked linkages are phosphodiester. Other units and linkages are bracketed, terminal groups are in braces. A string of capitals states the bases alone. e = 2'-O-(2-methoxyethyl) (MOE); [5mC] = 5-methylcytosine; d = 2'-deoxy (DNA)
Provide the recorded Percent Inhibition 150 nM for the entries that follow.
Could you give me the number in %? Just the number is fine.

**Q:** Can you look up the measured Percent Inhibition 150 nM of 147806 (antisense eA*eT*eG*eT*eG*dG*dT*dA*dA*d[5mC]*dG*dA*dG*d[5mC]*d[5mC]*e[5mC]*eG*eA*eA*eG) [compound 147806] for me?
**A:** 45

**Q:** Queued: 147820 (antisense eG*eA*eA*e[5mC]*eA*d[5mC]*dA*dT*dA*dG*d[5mC]*d[5mC]*dG*dA*dA*eT*eG*e[5mC]*e[5mC]*eG) [compound 147820]
**A:** 0

**Q:** Queued: 147816 (antisense eT*e[5mC]*eA*eT*eA*d[5mC]*dG*dT*dT*dT*dA*dG*d[5mC]*d[5mC]*d[5mC]*eA*eA*eT*e[5mC]*eT) [compound 147816]
**A:** 81

**Q:** Queued: 147788 (antisense eT*eT*eT*e[5mC]*eT*dG*dT*dT*dG*d[5mC]*d[5mC]*dA*d[5mC]*dA*dT*eT*eG*e[5mC]*e[5mC]*e[5mC]) [compound 147788]
**A:** 63

###

Test system: human apolipoprotein B mRNA
Test: Inhibition of human apolipoprotein B mRNA levels in HepG2 cells, quantitative real-time PCR
Type: cell-based
Conditions: HepG2 cells treated with 150 nM of compound; averages from two experiments; quantitative real-time PCR
In the oligonucleotide strings, read from the 5' end, every base follows the letter of its sugar. An asterisk marks phosphorothioate; unmarked linkages are phosphodiester. Other units and linkages are bracketed, terminal groups are in braces. A string of capitals states the bases alone. e = 2'-O-(2-methoxyethyl) (MOE); [5mC] = 5-methylcytosine; d = 2'-deoxy (DNA)
% INHIB (inhibition of human apolipoprotein B mRNA levels) of 80% or higher: yes. Under 80%: no.

**Q:** % INHIB (inhibition of human apolipoprotein B mRNA levels) >= 80% for 271017 (antisense eG*eG*eT*eG*e[5mC]*d[5mC]*dT*dG*dT*d[5mC]*dT*dG*d[5mC]*dT*d[5mC]*eA*eG*e[5mC]*eT*eG) [compound 271017] ?
**A:** no

**Q:** Queued: 281597 (eG*eG*eT*eA*eG*dG*dT*dG*dA*d[5mC]*d[5mC]*dA*d[5mC]*dA*dT*e[5mC]*eT*eA*eT*e[5mC]; antisense) [compound 281597]
**A:** no

**Q:** Queued: 301037 (e[5mC]*eA*eG*e[5mC]*eT*dT*dT*dG*dG*dT*dG*d[5mC]*dA*dG*dG*eT*e[5mC]*e[5mC]*eA*eG; antisense) [compound 301037]
**A:** yes

###

System: human apolipoprotein B mRNA
Assay: Inhibition of human apolipoprotein B mRNA levels in HepG2 cells, quantitative real-time PCR
Type: cell-based
Conditions: HepG2 cells; human apolipoprotein B mRNA; oligonucleotides targeting genomic sequence SEQ ID NO 334; averages from two experiments
Protocol: The human hepatoblastoma cell line HepG2 was obtained from the American Type Culture Collection (Manassas, Va.). […] Quantitation of apolipoprotein B mRNA levels was determined by real-time quantitative PCR using the ABI PRISM™ 7700 Sequence Detection System (PE-Applied Biosystems, Foster City, Calif.) according to manufacturer's instructions. […]
In the oligonucleotide strings, read from the 5' end, every base follows the letter of its sugar. An asterisk marks phosphorothioate; unmarked linkages are phosphodiester. Other units and linkages are bracketed, terminal groups are in braces. A string of capitals states the bases alone. e = 2'-O-(2-methoxyethyl) (MOE); [5mC] = 5-methylcytosine; d = 2'-deoxy (DNA)
Class key for % INHIB values: bottom bin = under 20%, middle bin = from 20% up to 40%, top bin = 40% and over

**Q:** Into which bin does this substance go? 301131 (e[5mC]*eT*eT*eT*eT*dT*d[5mC]*dA*dG*dA*d[5mC]*dT*dA*dG*dA*eT*eA*eA*eG*eA; antisense) [compound 301131]
**A:** bottom bin

**Q:** Queued: 301190 (antisense eA*eG*eA*e[5mC]*eA*d[5mC]*dA*dT*dA*d[5mC]*d[5mC]*dA*dT*dA*dA*eT*eG*e[5mC]*e[5mC]*eA) [compound 301190]
**A:** middle bin

**Q:** Queued: 301059 (eA*eT*e[5mC]*eA*eG*dA*dG*d[5mC]*dA*d[5mC]*d[5mC]*dA*dA*dA*dG*eG*eG*eA*eA*eT; antisense) [compound 301059]
**A:** bottom bin

**Q:** Queued: 301067 (eT*e[5mC]*eT*eG*eA*dT*d[5mC]*dA*d[5mC]*d[5mC]*dA*dT*dA*d[5mC]*dA*eT*eT*eA*e[5mC]*eA; antisense) [compound 301067]
**A:** top bin

**Q:** Queued: 301172 (antisense eT*eA*eA*eT*eG*dT*dG*dT*dT*dG*d[5mC]*dT*dG*dG*dT*eG*eA*eA*eG*eA) [compound 301172]
**A:** middle bin

**Q:** Queued: 301050 (eA*eT*eT*eT*e[5mC]*d[5mC]*dT*d[5mC]*dT*dT*d[5mC]*dT*dG*dT*dA*eA*eG*eA*e[5mC]*eA; antisense) [compound 301050]
**A:** middle bin

**Q:** Queued: 301196 (antisense e[5mC]*e[5mC]*eG*eG*e[5mC]*d[5mC]*dA*dT*d[5mC]*dG*d[5mC]*dT*dG*dA*dA*eA*eT*eG*eA*eA) [compound 301196]
**A:** top bin

**Q:** Queued: 301130 (e[5mC]*eT*eG*eA*e[5mC]*dA*d[5mC]*dA*d[5mC]*d[5mC]*dA*dT*dG*dT*dT*eA*eT*eT*eA*eT; antisense) [compound 301130]
**A:** bottom bin

**Q:** Queued: 301140 (eG*e[5mC]*eA*eT*eA*d[5mC]*dA*dA*dG*dT*d[5mC]*dA*d[5mC]*dA*dT*eG*eA*eG*eG*eT; antisense) [compound 301140]
**A:** middle bin

**Q:** Queued: 301122 (e[5mC]*eT*eG*eA*eG*dA*dT*dT*dA*d[5mC]*d[5mC]*d[5mC]*dG*d[5mC]*dA*eG*eA*eA*eT*e[5mC]; antisense) [compound 301122]
**A:** middle bin
